Target: Melanin-concentrating hormone receptor 1 (Homo sapiens) (UniProt Q99705)
Experiment: antagonist activity at MCH receptor 1 – cell-based, fluorescence, set 4, counter-screen for GPR7 antagonist project, dose response (AID 588568)
Conditions: MCHR1-expressing cells, fluorescence antagonist assay; run 1
Catalogue of compounds with associated IC50

// IC50 lookup, key: CC(=O)OCc1ccc(Oc2c(Cl)cnn(Cc3cccc4ccccc34)c2=O)cc1 6 µM

Try this compound next: Cc1cc(CN2CCCCC2C(=O)N2CCN(c3ccc([N+](=O)[O-])cc3)CC2)ccc1Cl (stereo unspecified) 1.42 µM

Try this compound next: COc1ccc(Oc2ccn(-c3ccc(C)cc3)c(=O)c2Cl)cc1 2.79 µM

Try this compound next: COc1ccc(Oc2c(Cl)c(OC)nn(-c3cccc(C)c3)c2=O)cc1 8.55 µM

Try this compound next: Cc1cc(C)cc(Cn2[nH]cc(Oc3ccc(CO)cc3)c(=O)c2=O)c1 2.32 µM

Try this compound next: CCOc1ccc(Oc2ccnn(Cc3cccc4ccccc34)c2=O)cc1 4.6 µM

====

Molecular target: Melanin-concentrating hormone receptor 1 (Homo sapiens) (UniProt Q99705)
Experiment: antagonist activity at MCH receptor 1 – cell-based, fluorescence, set 4, counter-screen for GPR7 antagonist project, dose response (AID 588568)
Settings: MCHR1-expressing cells, fluorescence antagonist assay; run 1
Activity calls are given as the source filed them. No rule for the calls is given here.
Would you mind answering with one of these outcomes? 1 (yes) = active, 0 (no) = inactive

Here are 5 compounds together with their reported answers.
CCN(CC)C(=O)C(c1ccccc1Cl)n1ncc(Cl)c(Oc2ccc(OC)cc2)c1=O (stereo unspecified) : 0 (no)
COc1ccc(Oc2c(-c3ccccc3C)c(-c3ccccc3C)nn(Cc3ccccc3C)c2=O)cc1 : 0 (no)
COc1ccc(Oc2c(Cl)cnn(-c3ccc(-c4ccc(C)cc4)cc3)c2=O)cc1 : 0 (no)
CC(C)c1ccc(Oc2c(Cl)cnn(Cc3cccc4ccccc34)c2=O)cc1 : 1 (yes)
C=Cc1ccc(Cn2ncc(Cl)c(Oc3ccc(OC)cc3)c2=O)cc1 : 1 (yes)

What is the recorded call for this compound in the test? COc1ccc(Oc2c(Cl)cnn(Cc3ccc(C(F)(F)F)cc3)c2=O)cc1 1 (yes)

Try this compound next: COc1ccc(Oc2c(Cl)cnn(Cc3ccc(C(C)C)cc3)c2=O)cc1 0 (no)

Try this compound next: COc1ccc(Oc2c(Cl)cnn(CC3CCCCC3)c2=O)cc1 0 (no)

Try this compound next: COC(=O)c1ccc(Oc2c(Cl)cnn(Cc3cccc4ccccc34)c2=O)cc1 0 (no)

====

Molecular target: Melanin-concentrating hormone receptor 1 (Homo sapiens) (UniProt Q99705)
Assay: antagonist activity at MCH receptor 1 – cell-based, fluorescence, set 4, counter-screen for GPR7 antagonist project, dose response (AID 588568)
Conditions: MCHR1-expressing cells, fluorescence antagonist assay; run 1
Active and inactive are the calls of the source. No rule for the calls is given here.
Would you mind answering with one of these outcomes? class 1 for active, class 0 for inactive

COc1ccc(Oc2c(Cl)cnn(Cc3ccc(F)cc3Cl)c2=O)cc1 : class 1
COc1ccc(Oc2c(Cl)cnn(Cc3ccc4c(c3)OCO4)c2=O)cc1 : class 1
COc1ccc(Oc2c(Cl)cnn(CCc3cccc4ccccc34)c2=O)cc1 : class 0

What is the recorded call for this molecule in the test? COc1ccc(Oc2c(Cl)cnn(Cc3ccc(Cl)c(C)c3)c2=O)cc1 class 0

Try this molecule next: COc1ccc(Oc2c(Cl)cnn(Cc3ccc(Br)c4ccccc34)c2=O)cc1 class 0

====

Molecular target: Melanin-concentrating hormone receptor 1 (Homo sapiens) (UniProt Q99705)
Assay: antagonist activity at MCH receptor 1 – cell-based, fluorescence, set 4, counter-screen for GPR7 antagonist project, dose response (AID 588568)
Details: MCHR1-expressing cells, fluorescence antagonist assay; run 1
The source made the active and inactive calls. How the calls were made is not given here.
Would you mind answering with one of these outcomes? active, inactive

Here are 3 compounds together with their reported answers.
CCOc1ccc(Oc2c(Cl)cnn(-c3cc(C)cc(C)c3)c2=O)cc1 : active
CC(C)c1ccc(-n2ncc(Cl)c(Oc3ccc(O)cc3)c2=O)cc1 : inactive
Cc1cc(C)cc(-n2ncc(Cl)c(Oc3ccc(CO)cc3)c2=O)c1 : active

What is the recorded call for this compound in the test? COCn1ncc(Cl)c(Oc2ccc(OC)cc2)c1=O inactive

Try this compound next: COc1ccc(Oc2c(Cl)cnn(-c3ccc(OC)cc3)c2=O)cc1 inactive

Try this compound next: COc1ccc(Oc2c(Cl)cnn(C(CCl)c3cccc4ccccc34)c2=O)cc1 (stereo unspecified) inactive

Try this compound next: COc1ccc(Oc2c(Cl)cnn(-c3ccc(C)c(C)c3)c2=O)cc1 active

Try this compound next: COc1ccc(Oc2c(Cl)cnn(C3=Nc4ccccc4Oc4ccccc43)c2=O)cc1 active

Try this compound next: COc1ccc(Cn2ncc(Cl)c(Oc3ccc(OC)cc3)c2=O)cc1 inactive

Try this compound next: COc1ccc(Oc2c(Cl)cnn(Cc3ccc(Cl)cc3Cl)c2=O)cc1 active

Try this compound next: CCOc1ccc(Oc2c(N)cnn(Cc3cccc4ccccc34)c2=O)cc1 active

====

Target: Melanin-concentrating hormone receptor 1 (Homo sapiens) (UniProt Q99705)
Assay: antagonist activity at MCH receptor 1 – cell-based, fluorescence, set 4, counter-screen for GPR7 antagonist project, dose response (AID 588568)
Conditions: MCHR1-expressing cells, fluorescence antagonist assay; run 2
Value Type: pIC50
As a rule, pIC50 stands for the negative log10 of the concentration, concentration in M.

COc1ccc(Oc2c(Cl)cnn(-c3ccc(C)c(C)c3)c2=O)cc1 : 5.40

// pIC50 lookup, key: COc1ccc(Oc2c(Cl)cnn(-c3ccc(C(F)(F)F)cc3)c2=O)cc1 5.01

====

Molecular target: UniProt Q99705
Experiment: antagonist activity at MCH receptor 1 – cell-based, fluorescence, set 4, counter-screen for GPR7 antagonist project, dose response (AID 588568)
Conditions: MCHR1-expressing cells, fluorescence antagonist assay; run 1
Activity calls are given as the source filed them. No rule for the calls is given here.
Would you mind answering with one of these outcomes? class 1 = active, class 0 = inactive

Here are 3 compounds together with their reported answers.
CCCC(=O)OCC(c1cccc2ccccc12)n1ncc(Cl)c(Oc2ccc(OC)cc2)c1=O (stereo not given) : class 0
COc1ccc(Oc2c(Cl)cnn(-c3ccc4ccccc4c3)c2=O)cc1 : class 1
CCOc1ccc(Oc2c(NC(=O)OC(C)(C)C)cnn(Cc3cccc4ccccc34)c2=O)cc1 : class 0

What is the recorded call for this compound in the test? O=c1c(Oc2ccc3occc3c2)c(Cl)cnn1Cc1cccc2ccccc12 class 0

Try this compound next: O=C(c1cnn(-c2ccc(Cl)cc2)c1C(F)(F)F)N1CCN(c2ccc([N+](=O)[O-])cc2)CC1 class 1

Try this compound next: O=C(O)c1ccc(Oc2c(Cl)cnn(Cc3cccc4ccccc34)c2=O)cc1 class 0

====

Target: Melanin-concentrating hormone receptor 1 (Homo sapiens) (UniProt Q99705)
Test: antagonist activity at MCH receptor 1 – cell-based, fluorescence, set 4, counter-screen for GPR7 antagonist project, dose response (AID 588568)
Conditions: MCHR1-expressing cells, fluorescence antagonist assay; run 1
Activity calls are given as the source filed them. No rule for the calls is given here.
Would you mind answering with one of these outcomes? true (active), false (inactive)

Here are 4 molecules together with their reported answers.
COc1ccc(Oc2c(Cl)cnn(-c3ccc(F)cc3)c2=O)cc1 : true
COc1ccc(Oc2c(Cl)cnn(-c3nc4ccccc4c4ccccc34)c2=O)cc1 : false
COc1ccc(Oc2c(Cl)cnn(C(C)c3cccc4ccccc34)c2=O)cc1 (stereo not given) : true
COc1ccc(Oc2c(Cl)c(-c3ccsc3)nn(Cc3ccccc3C)c2=O)cc1 : true

Switching to the query record.
What is the recorded call for this molecule in the test? O=c1c(Oc2ccc(OC(F)(F)F)cc2)c(Cl)cnn1Cc1cccc2ccccc12 false

====

Target: Melanin-concentrating hormone receptor 1 (Homo sapiens)
Assay: antagonist activity at MCH receptor 1 – cell-based, fluorescence, set 4, counter-screen for GPR7 antagonist project, dose response (AID 588568); call rule not given here
Conditions: MCHR1-expressing cells, fluorescence antagonist assay; run 1
Would you mind answering with one of these outcomes? active, inactive

What is the recorded call for this compound in the test? COc1ccc(Oc2c(Cl)cnn(C3=Nc4cc(Cl)ccc4Oc4ccccc43)c2=O)cc1 active

Try this compound next: COc1ccc(Oc2c(Cl)cnn(Cc3c(Cl)cccc3Cl)c2=O)cc1 active

Try this compound next: COc1ccc(Oc2c(Cl)cnn(-c3ccc(C)cc3C)c2=O)cc1 active

====

Target: Melanin-concentrating hormone receptor 1 (Homo sapiens) (UniProt Q99705)
Experiment: antagonist activity at MCH receptor 1 – cell-based, fluorescence, set 4, counter-screen for GPR7 antagonist project, dose response (AID 588568)
Settings: MCHR1-expressing cells, fluorescence antagonist assay; run 1
The source made the active and inactive calls. How the calls were made is not given here.
Would you mind answering with one of these outcomes? active, inactive

Here are 3 compounds together with their reported answers.
CCc1cccc(-n2ncc(Cl)c(Oc3ccc(OC)cc3)c2=O)c1 : active
CN(C)Cc1ccc(Oc2c(Cl)cnn(Cc3cccc4ccccc34)c2=O)cc1 : inactive
COc1ccc(Oc2c(Cl)c(-c3ccccc3C)nn(Cc3ccccc3C)c2=O)cc1 : active

What is the recorded call for this compound in the test? COc1ccc(Oc2c(Cl)cnn(Cc3ccc(F)c4ccccc34)c2=O)cc1 active

Try this compound next: COc1ccc(Oc2c(Cl)cnn(-c3ccc(Cl)cc3)c2=O)cc1 inactive

Try this compound next: COc1ccc(Nc2ccnn(Cc3cccc4ccccc34)c2=O)cc1 inactive

Try this compound next: Cc1ccccc1Cn1ncc(Oc2ccc(CO)cc2)c(Cl)c1=O active

Try this compound next: COc1ccc(Oc2c(Cl)c(-c3ccccc3)nn(Cc3ccccc3C)c2=O)cc1 active

Try this compound next: COc1ccc(Oc2c(C)cnn(Cc3cccc4ccccc34)c2=O)cc1 active
